assayed target: Signal transducer and activator of transcription 1-alpha/beta (Homo sapiens)
Sequence (P42224 whole entry): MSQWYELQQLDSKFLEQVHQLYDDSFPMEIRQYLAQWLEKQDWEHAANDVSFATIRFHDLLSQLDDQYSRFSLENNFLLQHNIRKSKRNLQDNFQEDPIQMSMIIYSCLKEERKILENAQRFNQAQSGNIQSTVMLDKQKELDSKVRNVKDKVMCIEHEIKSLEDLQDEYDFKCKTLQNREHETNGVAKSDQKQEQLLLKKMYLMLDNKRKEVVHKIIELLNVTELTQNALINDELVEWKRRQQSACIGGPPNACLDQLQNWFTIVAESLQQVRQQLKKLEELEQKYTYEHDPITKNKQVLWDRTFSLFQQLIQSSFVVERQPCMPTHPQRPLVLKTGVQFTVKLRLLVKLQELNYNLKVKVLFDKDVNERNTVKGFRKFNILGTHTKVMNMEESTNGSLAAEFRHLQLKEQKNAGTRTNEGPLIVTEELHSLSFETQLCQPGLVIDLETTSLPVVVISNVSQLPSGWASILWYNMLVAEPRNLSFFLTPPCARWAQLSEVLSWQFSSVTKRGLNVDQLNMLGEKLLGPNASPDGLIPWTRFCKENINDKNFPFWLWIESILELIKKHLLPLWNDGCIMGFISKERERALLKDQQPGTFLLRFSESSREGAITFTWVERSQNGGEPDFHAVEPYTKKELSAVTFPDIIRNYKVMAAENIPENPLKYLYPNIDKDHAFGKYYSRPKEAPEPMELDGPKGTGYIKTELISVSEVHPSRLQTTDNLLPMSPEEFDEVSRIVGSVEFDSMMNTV
procedure details: Inhibition of Stat1 (unknown origin) expressed in LPS/INF-gamma-stimulated human MONO-MAC-6 cells assessed as reduction in GAS dependent transcription activity measured after 4 hrs by luciferase reporter gene assay
measured quantity: IC50 (nM)

[[record]]
mol = "CC(C)[C@H]1CC[C@]23C[C@@H]4[C@H](C)C(=O)[C@H]5O[C@]54[C@@]2(C)CC(=O)[C@]13C"
measured_number = 2000


I: C=C[C@H]1CC[C@]23C[C@@H]4[C@H](C)C(=O)[C@H]5O[C@]54[C@@]2(C)C[C@H](O)[C@]13C
II: CC(C)[C@H]1CC[C@]23C[C@@H]4[C@H](C)C(=O)[C@H]5O[C@]54[C@@]2(C)[C@@H](O)C(=O)[C@]13C
Q: Hi team, can someone confirm which has the larger IC50: I or II ? Thanks. Refer to your chosen entry by its label in the reply.
Ans: II
(II: 7000 nM, I: 2000 nM)

Entry source: BindingDB's records for doi:10.1016/j.bmc.2016.11.016
